B1: HDV Ribozyme (parent)
chain: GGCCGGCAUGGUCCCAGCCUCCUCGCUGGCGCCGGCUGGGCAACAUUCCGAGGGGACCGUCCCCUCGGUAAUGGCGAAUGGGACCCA

Variants of: B1
Assay: self-cleavage, relative activity (ratio to wild type); higher = more cleavage; co-transcriptional
Exercise: for every item that follows, state its recorded self-cleavage.
Form: value (number only, do not type unit).

// query Find the recorded self-cleavage belonging to G29A C36G and report it.
// result 0.111

// query Find the recorded self-cleavage belonging to G1U C44G and report it.
// result 0.271

// query Find the recorded self-cleavage belonging to G25C and report it.
// result 0.0909

// query Find the recorded self-cleavage belonging to G29A A51G and report it.
// result 0.366

// query Find the recorded self-cleavage belonging to G5C A43G and report it.
// result 0

// query Find the recorded self-cleavage belonging to G74U A83C and report it.
// result 0.271

// query Find the recorded self-cleavage belonging to C14A G80U and report it.
// result 0.273

// query Find the recorded self-cleavage belonging to C15U G17A and report it.
// result 0.604

// query Find the recorded self-cleavage belonging to G2U G80U and report it.
// result 0.0208

// query Find the recorded self-cleavage belonging to C61G U72A and report it.
// result 0.457

// query Find the recorded self-cleavage belonging to C7U U20C and report it.
// result 0

// query Find the recorded self-cleavage belonging to C14G C21U and report it.
// result 0.113

// query Find the recorded self-cleavage belonging to A16C C86U and report it.
// result 0.739

// query Find the recorded self-cleavage belonging to U37G U46A and report it.
// result 0

// query Find the recorded self-cleavage belonging to U12G A56U and report it.
// result 1.22

// query Find the recorded self-cleavage belonging to U12G U60C and report it.
// result 0.895

// query Find the recorded self-cleavage belonging to G38C G53U and report it.
// result 0.266

// query Find the recorded self-cleavage belonging to U20G C21A and report it.
// result 0.142

// query Find the recorded self-cleavage belonging to G50C A70G and report it.
// result 0.917

// query Find the recorded self-cleavage belonging to G29C C63A and report it.
// result 0.117

// query Find the recorded self-cleavage belonging to G25A C66U and report it.
// result 0.338

// query Find the recorded self-cleavage belonging to C44U C64U and report it.
// result 0.876

// query Find the recorded self-cleavage belonging to C41G C64A and report it.
// result 0.853

// query Find the recorded self-cleavage belonging to C58A C62G and report it.
// result 1.19

// query Find the recorded self-cleavage belonging to A43G G67U and report it.
// result 0.527

// query Find the recorded self-cleavage belonging to G17A G82A and report it.
// result 0.272

// query Find the recorded self-cleavage belonging to G76A A87G and report it.
// result 1.01

// query Find the recorded self-cleavage belonging to U27G C44A and report it.
// result 0.475

// query Find the recorded self-cleavage belonging to A8C G55U and report it.
// result 0.831

// query Find the recorded self-cleavage belonging to U23A C61U and report it.
// result 1.25

// query Find the recorded self-cleavage belonging to G17C U69A and report it.
// result 0.453

// query Find the recorded self-cleavage belonging to G10U C15G and report it.
// result 0.0773

// query Find the recorded self-cleavage belonging to U60A G82C and report it.
// result 0.148

// query Find the recorded self-cleavage belonging to G1A G67A and report it.
// result 0.0665

// query Find the recorded self-cleavage belonging to G11U C75A and report it.
// result 0.0231

// query Find the recorded self-cleavage belonging to U9A G50A and report it.
// result 1.12

// query Find the recorded self-cleavage belonging to U12A G40U and report it.
// result 0.111

// query Find the recorded self-cleavage belonging to C63A G74A and report it.
// result 0.478

// query Find the recorded self-cleavage belonging to G73A U79G and report it.
// result 0.248

// query Find the recorded self-cleavage belonging to G59A G74U and report it.
// result 0.561

// query Find the recorded self-cleavage belonging to U37C U72C and report it.
// result 0.462

// query Find the recorded self-cleavage belonging to C14G U23G and report it.
// result 0.453

// query Find the recorded self-cleavage belonging to G67U A83U and report it.
// result 0.469

// query Find the recorded self-cleavage belonging to G34C C86U and report it.
// result 0.237

// query Find the recorded self-cleavage belonging to C48U C62A and report it.
// result 0.847

// query Find the recorded self-cleavage belonging to G28U U79C and report it.
// result 0.0707

// query Find the recorded self-cleavage belonging to G1U C62G and report it.
// result 0.391

// query Find the recorded self-cleavage belonging to A51U A87G and report it.
// result 0.965

// query Find the recorded self-cleavage belonging to A43U G67C and report it.
// result 0.354

// query Find the recorded self-cleavage belonging to C13U C21G and report it.
// result 0.115

// query Find the recorded self-cleavage belonging to C49A G53C and report it.
// result 0.506

// query Find the recorded self-cleavage belonging to A45C G52U and report it.
// result 0.697

// query Find the recorded self-cleavage belonging to A16C A77C and report it.
// result 0.266

// query Find the recorded self-cleavage belonging to A8G U23A and report it.
// result 0.9

// query Find the recorded self-cleavage belonging to G28U C57U and report it.
// result 0.208

// query Find the recorded self-cleavage belonging to G5U C32U and report it.
// result 0.104

// query Find the recorded self-cleavage belonging to A51G C66U and report it.
// result 0.89

// query Find the recorded self-cleavage belonging to U12G G28U and report it.
// result 0

// query Find the recorded self-cleavage belonging to U37C C84G and report it.
// result 0.587

// query Find the recorded self-cleavage belonging to C61U C63A and report it.
// result 0.758

// query Find the recorded self-cleavage belonging to G29U G39U and report it.
// result 0.111

// query Find the recorded self-cleavage belonging to C22A G80C and report it.
// result 0.229

// query Find the recorded self-cleavage belonging to C3G G67C and report it.
// result 0.524

// query Find the recorded self-cleavage belonging to G17C C26G and report it.
// result 0.0852

// query Find the recorded self-cleavage belonging to G38U U72G and report it.
// result 0.145

// query Find the recorded self-cleavage belonging to G6U C18U and report it.
// result 0.0369

// query Find the recorded self-cleavage belonging to U20G C84A and report it.
// result 0.222

// query Find the recorded self-cleavage belonging to C33U A71U and report it.
// result 0.65

// query Find the recorded self-cleavage belonging to C58U G59U and report it.
// result 1.05

// query Find the recorded self-cleavage belonging to A78G G81U and report it.
// result 0.185

// query Find the recorded self-cleavage belonging to C24G C48A and report it.
// result 0.0519

// query Find the recorded self-cleavage belonging to G10C G80A and report it.
// result 0.166

// query Find the recorded self-cleavage belonging to G29U C64A and report it.
// result 0.0665

// query Find the recorded self-cleavage belonging to C26U G67U and report it.
// result 0.686

// query Find the recorded self-cleavage belonging to C19A A45G and report it.
// result 0.0369

// query Find the recorded self-cleavage belonging to G11U G82A and report it.
// result 0.0678
